Data provenance: patent US20250195685A1

Documented koff across a set of binders
# assay target: T1, human CD8αα homodimer, recombinant protein (Acro Biosystems) (human, UniProt P01732 22-182)
# T1 construct: also called CD8αα antigen; biotinylated CD8α recombinant protein (CDA-H82E3)
# T1 sequence (P01732 22-182 limits assumed): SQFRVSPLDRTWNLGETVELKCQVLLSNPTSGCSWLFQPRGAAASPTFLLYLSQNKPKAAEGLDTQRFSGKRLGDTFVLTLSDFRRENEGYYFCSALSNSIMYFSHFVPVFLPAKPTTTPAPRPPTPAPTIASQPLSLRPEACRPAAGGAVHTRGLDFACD
# assay name: BLI kinetics, F(ab) on biotinylated CD8α (SA-XT sensor), 1:1 fit, 37 °C [CONT'ED]
measurement kind: koff (s⁻¹)

binder	obs value
CBD1040 (Fab, V domains shown, also called h1017-H5/L3 F(ab)) VH: QVQLVQSGAEVKKPGASVKISCKASRYTFTDYNLHWVRQAPGQGLEWIGFIYPYNGGTGYAQKFQGRATLTVDYSTSTAYMELSSLRSEDTAVYYCARDHRYNEGVSFDYWGQGTTLTVSS VL: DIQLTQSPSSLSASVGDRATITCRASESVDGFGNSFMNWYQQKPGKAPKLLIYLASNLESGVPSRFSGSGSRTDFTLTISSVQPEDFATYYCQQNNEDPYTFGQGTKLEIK	0.000103
CBD1036 (Fab, V domains shown, also called h1017-H3/L3 F(ab)) VH: QVQLVQSGAEVKKPGASVKISCKASRYTFTDYNLHWVRQAPGQGLEWIGFIYPYNGGTGYAQKFQGRATLTVDTSTSTAYMELSSLRSEDTAVYYCARDHRYNEGVSFDYWGQGTTLTVSS VL: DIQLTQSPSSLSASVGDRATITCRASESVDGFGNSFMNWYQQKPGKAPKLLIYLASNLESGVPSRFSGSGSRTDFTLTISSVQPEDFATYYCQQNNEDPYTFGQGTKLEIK	0.000194
CBD1039 (Fab, V domains shown, also called h1017-H5/L2 F(ab)) VH: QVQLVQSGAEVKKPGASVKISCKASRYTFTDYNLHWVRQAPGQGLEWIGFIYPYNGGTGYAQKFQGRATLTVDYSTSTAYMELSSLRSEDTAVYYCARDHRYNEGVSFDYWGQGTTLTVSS VL: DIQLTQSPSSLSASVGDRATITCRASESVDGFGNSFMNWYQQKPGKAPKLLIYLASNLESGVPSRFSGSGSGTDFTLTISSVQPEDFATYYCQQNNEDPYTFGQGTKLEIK	9.27e-05
